Assay: Selectivity index, ratio of CC50 for human Huh7.5.1 cells infected with Hepatitis C virus JFH-1 to EC50 for Hepatitis C virus JFH-1 infected in human Huh7.5.1 cells
Type: toxicity, cell-based, Huh-7
Settings: read-out: Ratio CC50/EC50
measured_property: selectivity ratio
// response body must contain only the number

Look up selectivity ratio of `CC1=NN(c2cccc(F)c2)C(=O)/C1=C/c1cn(C[C@@H](O)CNCCCN2CCOCC2)c2ccccc12` and report it.
3.97

Given the compound CC1=NN(c2cccc(F)c2)C(=O)/C1=C/c1cn(CC2CO2)c2ccccc12 (centres undefined) , write its reported selectivity ratio.
9.67

Give reported selectivity ratio value for CC1=NN(c2ccccc2)C(=O)/C1=C/c1cn(CC(O)CNCCCN2CCOCC2)c2ccccc12 (racemic)
17.6

Indicate the recorded selectivity ratio value for this compound: CC1=NN(c2cccc(C(F)(F)F)c2)C(=O)/C1=C/c1cn(CC(O)CNCCCN2CCOCC2)c2ccccc12 (racemic)
8.57

Give the measured selectivity ratio for CC1=NN(c2ccc(Cl)cc2)C(=O)/C1=C/c1cn(CC2CO2)c2ccccc12 (centres undefined)
5.17

Fill in selectivity ratio for record CC1=NN(c2ccccc2)C(=O)/C1=C/c1cn(CC(O)CNCCCCN2CCOCC2)c2ccccc12 (racemic)
4

# return recorded selectivity ratio for entry CC1=NN(c2cccc(F)c2)C(=O)/C1=C/c1cn(CC(O)CNCCCN2CCOCC2)c2ccccc12 (racemic)
23.3

Respond only with selectivity ratio recorded for CC1=NN(c2ccc(C(F)(F)F)cc2)C(=O)/C1=C/c1cn(CC2CO2)c2ccccc12 (centres undefined)
5.14

Name the recorded selectivity ratio of the item `CC1=NN(c2cccc(F)c2)C(=O)/C1=C/c1cn(C[C@H](O)CNCCCN2CCOCC2)c2ccccc12` in your answer.
42

Respond only with selectivity ratio recorded for CC1=NN(c2ccc(C(F)(F)F)cc2)C(=O)/C1=C/c1cn(CC(O)CNCCCN2CCOCC2)c2ccccc12 (racemic)
2.44

Read off the recorded selectivity ratio for CC1=NN(c2ccc(C)cc2)C(=O)/C1=C/c1cn(CC2CO2)c2ccccc12 (centres undefined)
4.24

Return the recorded selectivity ratio value; entry: CC1=NN(c2ccc(C)cc2)C(=O)/C1=C/c1cn(CC(O)CNCCCN2CCOCC2)c2ccccc12 (racemic)
19.8

* * *

Assay: Selectivity index, ratio of CC50 for human Huh7.5.1 cells infected with Hepatitis C virus JFH-1 to EC50 for Hepatitis C virus JFH-1 infected in human Huh7.5.1 cells
Assay type: toxicity, cell-based, Huh-7
Conditions: read-out: Ratio CC50/EC50
Answer each item with its documented selectivity ratio.
Write no unit; give the number alone.

Supply reported selectivity ratio belonging to this compound: CC1=NN(c2ccccc2F)C(=O)/C1=C/c1cn(CC(O)CNCCCN2CCOCC2)c2ccccc12 (racemic)
12.3

# return recorded selectivity ratio for input COc1ccc(N2N=C(C)/C(=C\c3cn(CC(O)CNCCCN4CCOCC4)c4ccccc34)C2=O)cc1 (racemic)
7.53

Specify selectivity ratio for `CC1=NN(c2ccccc2)C(=O)/C1=C/c1cn(C[C@@H](O)CNCCCN2CCOCC2)c2ccccc12` and stop.
2.67

For the compound CC1=NN(c2cccc(C(F)(F)F)c2)C(=O)/C1=C/c1cn(CC2CO2)c2ccccc12 (stereo not drawn) , give its measured selectivity ratio value.
4.23

Retrieve selectivity ratio measured for CC1=NN(c2ccccc2)C(=O)/C1=C/c1cn(CC(O)CNCCN2CCOCC2)c2ccccc12 (racemic) and print it.
7.76

Answer with reported selectivity ratio of CC1=NN(c2ccc(Cl)cc2)C(=O)/C1=C/c1cn(CC(O)CNCCCN2CCOCC2)c2ccccc12 (racemic)
5.12

Return value of selectivity ratio for input CC1=NN(c2ccccc2)C(=O)/C1=C/c1cn(CC2CO2)c2ccccc12 (stereo not drawn) , no commentary.
8.02
